Test system: 2G12 (anti-HIV-1 gp120 carbohydrate-binding monoclonal antibody)
Assay: filter
Settings: all T in random region are EdU-Man9; moderate binding; Mg2+ buffer
Observation Type: pKd
For clarity, pKd is expressed as the negative log10 of concentration in mol/L.

Quick one: pKd for CGGGTACGGGAGACCCATGGTGCAACCTACGGATAAAGCACACAGGAGACGACAAG [Clone 7 glycoDNA] ?
7.92

----------
Test system: 2G12 (anti-HIV-1 gp120 carbohydrate-binding monoclonal antibody)
Test: BLI
Conditions: N are Man9-derivatized dU (3 sites); 5' A5 spacer [26,33,39]; 1:1 global fit; kon 2.04e4 /M/s, koff 2.53e-4 /s
Observation Type: Kd

Quick one: Kd for AAAAACGGGTACGGGAGACCCACGGTGCAACCTACGGATAAAGCACACAGGAGACGACAAG [Clone 1 biotinylated glycoDNA (BLI)] ?
12.4 nM

----------
Test system: 2G12 (anti-HIV-1 gp120 carbohydrate-binding monoclonal antibody)
Assay: filter
Settings: all T in random region are EdU-Man9 (3 sites); 20 mM Tris pH 7.5, 150 mM NaCl, 4 mM MgSO4, BSA; binding at 37 C also shown in FIG. 11
Observation Type: pKd
For clarity, pKd is expressed as the negative log10 of concentration in mol/L.

Quick one: pKd for CGGGTACGGGAGACCCACAGTGCAACCTACGGATAAAGCACACAGGAGACGACAAG [Clone 2 glycoDNA] ?
8.77
